Source of measurements: PubChem BioAssay (NCI)

System: SF-539 CNS
Test name: NCI tumour cell line growth inhibition, 48 h
Measurement label: GI50

{"Molecule": "CN1CCN(C(=O)OCc2nc3c(N4CCOCC4)nc(Cl)nc3n2C)CC1", "Test system": "SF-539 CNS", "Measurement label": "GI50", "Recorded value": "1390 nM"}
{"Molecule": "C[C@@H]1OC(O)[C@@H](F)[C@H](O)[C@@H]1O (stereo partly specified)", "Test system": "SF-539 CNS", "Measurement label": "GI50", "Recorded value": "> 100000 nM"}
{"Molecule": "O=C1CCCCN1CCCCC#Cc1ccccc1C#Cc1ccc([N+](=O)[O-])cc1", "Test system": "SF-539 CNS", "Measurement label": "GI50", "Recorded value": "3130 nM"}
{"Molecule": "N#Cc1ccc(O)c(C2=NCC(c3cccc(Oc4ccccc4)c3)O2)c1 (stereo unspecified)", "Test system": "SF-539 CNS", "Measurement label": "GI50", "Recorded value": "1830 nM"}
{"Molecule": "Oc1ccc(NCc2nc3ccccc3[nH]2)cc1", "Test system": "SF-539 CNS", "Measurement label": "GI50", "Recorded value": "51700 nM"}
{"Molecule": "CC(C)(C)OC(=O)N1CCc2c(sc3ncnc(N/N=C/c4cccc5ccccc45)c23)C1", "Test system": "SF-539 CNS", "Measurement label": "GI50", "Recorded value": "2720 nM"}
